# Test system: 171881-019-R-J1-PDC tumor spheroid viability
# experimental.protocol: Anticancer human tumor 171881-019-R-J1-PDC patient-derived invasive breast carcinoma cell line growth inhibition [PI3K]
# assay.setup: second compound 0.0316 µM; first compound 0.316 µM; active compounds read low; spheroids with HUVEC and MSC
// assign yes if viability, T/C falls strictly below 50%, else no (ties count as no)

molecule="CC1(C)CCC(Nc2ncc(C(F)(F)F)c(-c3c[nH]c4c(P(C)(C)=O)c(C#N)ccc34)n2)CN1 (stereo unspecified) + COc1c(OCCCN2CCOCC2)ccc2c3n(c(=NC(=O)c4cnc(N)nc4)nc12)CCN3" experimental_system="171881-019-R-J1-PDC tumor spheroid viability" group=yes

Q: Is it true that viability, T/C reported for CC(Cn1ccc(-c2ccc(C#N)c(Cl)c2)n1)NC(=O)c1cc(C(C)O)[nH]n1 (stereo unspecified) + CC(Nc1ncnc2nc[nH]c12)c1cc2cccc(Cl)c2c(=O)n1-c1ccccc1 is less than 50%?
Ans: no

Q: Hello, is viability, T/C of the following molecule strictly smaller than 50%? CC1(C)CCC(Nc2ncc(C(F)(F)F)c(-c3c[nH]c4c(P(C)(C)=O)c(C#N)ccc34)n2)CN1 (stereo unspecified) + CC(Nc1ccc2c(c1)OCCn1cc(N3C(=O)OCC3C(F)F)nc1-2)C(N)=O
Ans: no

Q: In the record for CC(C)NCC(C(=O)N1CCN(c2ncnc3c2C(C)CC3O)CC1)c1ccc(Cl)cc1 (stereo unspecified) + CC(Nc1ncnc2nc[nH]c12)c1cc2cccc(Cl)c2c(=O)n1-c1ccccc1 , is viability, T/C less than 50%?
Ans: no

Q: Say whether its viability, T/C is strictly beneath 50%. Entry: CNC(=O)c1ccc(N2C(=S)N(c3ccc(C#N)c(C(F)(F)F)c3)C(=O)C2(C)C)cc1F + CC(Nc1ccc2c(c1)OCCn1cc(N3C(=O)OCC3C(F)F)nc1-2)C(N)=O
Ans: no

Q: Take the molecule C=CC(=O)N1CCN(c2nc(=O)n(-c3c(C)ccnc3C(C)C)c3nc(-c4c(O)cccc4F)c(F)cc23)C(C)C1 (stereo unspecified) + Cc1nc(NC(=O)N2CCCC2C(N)=O)sc1-c1ccnc(C(C)(C)C(F)(F)F)c1 and say whether its viability, T/C is less than 50%.
Ans: no

====

# Tested on: 171881-019-R-J1-PDC tumor spheroid viability
# experimental.protocol: Anticancer human tumor 171881-019-R-J1-PDC cell line growth inhibition [PI3K];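 note: spheroids exposed to compound for 7 days before viability read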
# assay.setup: second compound 0.00316 µM; first compound 1 µM; active compounds read low; spheroids with HUVEC and MSC
Binary call on viability, T/C with cut-off 60%: strictly below means T, and equality or higher means F.

Take a look at these entries with their results.
compound="CC1(C)CCC(CN2CCN(c3ccc(C(=O)NS(=O)(=O)c4ccc(NCC5CCOCC5)c([N+](=O)[O-])c4)c(Oc4cnc5[nH]ccc5c4)c3)CC2)=C(c2ccc(Cl)cc2)C1 + CC(Nc1ccc2c(c1)OCCn1cc(N3C(=O)OCC3C(F)F)nc1-2)C(N)=O" group=F
compound="C=CC(=O)N1CCN(c2nc(=O)n(-c3c(C)ccnc3C(C)C)c3nc(-c4c(O)cccc4F)c(F)cc23)C(C)C1 (stereo unspecified) + CC(Nc1ccc2c(c1)OCCn1cc(N3C(=O)OCC3C(F)F)nc1-2)C(N)=O" group=F
compound="CC(C)NCC(C(=O)N1CCN(c2ncnc3c2C(C)CC3O)CC1)c1ccc(Cl)cc1 (stereo unspecified) + CC(Nc1ccc2c(c1)OCCn1cc(N3C(=O)OCC3C(F)F)nc1-2)C(N)=O" group=T
compound="Cn1nccc1Nc1nccc(-c2ccn(C(CO)c3ccc(Cl)c(F)c3)c(=O)c2)n1 (stereo unspecified) + CC(Nc1ccc2c(c1)OCCn1cc(N3C(=O)OCC3C(F)F)nc1-2)C(N)=O" group=T
compound="CC(Cn1ccc(-c2ccc(C#N)c(Cl)c2)n1)NC(=O)c1cc(C(C)O)[nH]n1 (stereo unspecified) + CC(Nc1ccc2c(c1)OCCn1cc(N3C(=O)OCC3C(F)F)nc1-2)C(N)=O" group=F
compound="CC(Cn1ccc(-c2ccc(C#N)c(Cl)c2)n1)NC(=O)c1cc(C(C)O)[nH]n1 (stereo unspecified) + COc1c(OCCCN2CCOCC2)ccc2c3n(c(=NC(=O)c4cnc(N)nc4)nc12)CCN3" group=F
compound="C[C@@H](NC(=O)c1ncnc(N)c1Cl)c1ncc(C(=O)Nc2cc(C(F)(F)F)c(Cl)cn2)s1 + COc1c(OCCCN2CCOCC2)ccc2c3n(c(=NC(=O)c4cnc(N)nc4)nc12)CCN3" group=F
compound="C[C@@H](NC(=O)c1ncnc(N)c1Cl)c1ncc(C(=O)Nc2cc(C(F)(F)F)c(Cl)cn2)s1 + CC(Nc1ccc2c(c1)OCCn1cc(N3C(=O)OCC3C(F)F)nc1-2)C(N)=O" group=F

Q: Input Cn1ncc(Cl)c1-c1cc(C(=O)NC(CN)Cc2cccc(F)c2)sc1Cl (stereo unspecified) + CC(Nc1ccc2c(c1)OCCn1cc(N3C(=O)OCC3C(F)F)nc1-2)C(N)=O ; condition: viability, T/C strictly below 60%. Does it hold?
Ans: T

Q: Field: below-cutoff. Rule: recorded viability, T/C strictly less than 60%. Subject: C#Cc1c(F)ccc2cc(O)cc(-c3ncc4c(N5CC6CCC(C5)N6)nc(OCC56CCCN5CC(F)C6)nc4c3F)c12 (stereo unspecified) + CC(Nc1ccc2c(c1)OCCn1cc(N3C(=O)OCC3C(F)F)nc1-2)C(N)=O
Ans: T

Q: Report whether reported viability, T/C is lower than 60% (strictly) for CC1(C)CCC(Nc2ncc(C(F)(F)F)c(-c3c[nH]c4c(P(C)(C)=O)c(C#N)ccc34)n2)CN1 (stereo unspecified) + COc1c(OCCCN2CCOCC2)ccc2c3n(c(=NC(=O)c4cnc(N)nc4)nc12)CCN3
Ans: F
